system: COLO 205 colon; assay: NCI tumour cell line growth inhibition, 48 h
*1 amine or outer side, *2 acyl side, *3 side chain or, on linkers, in order; H or OH if unused. Where a SMILES comes first, the peptide text is derived from it. [ ]: non-standard residue; d: D form. X56 = CC[C@H](C)[C@H](OC(=O)[C@@H](C)[C@@H](CC)N[*:1])C(=O)[*:2]; X32 = C[C@H](N[*:1])C(=O)C(C)(C)C(=O)[*:2]; NMeY = CN[C@@H](Cc1ccc(O)cc1)C(=O)O; NMeL = CN[C@@H](CC(C)C)C(=O)O; NMeV = CN[C@H](C(=O)O)C(C)C
// values below are reported TGI

{"columns": ["molecule", "measurement.target", "relation", "TGI, µM"],
 "data": [
  ["COc1ccc(-c2csc(NC(=O)c3cc(O)c(O)c(O)c3)n2)cc1", "COLO 205 colon", ">", 33.3],
  ["CC1(C)CC(Nc2ccc(Nc3ccccc3)cc2)CC(C)(C)N1", "COLO 205 colon", "=", 32.5],
  ["O=C(OCCC12CC3CC(CC(C3)C1)C2)c1ccc(NCc2cc(O)ccc2O)cc1", "COLO 205 colon", "=", 1.2],
  ["C=CC1=C(C)C2=NC1=CC1=NC(=CC3=C(C)C4=C(O)C(C(=O)OC)C(=C5NC(=C2)C(C)C5CCC(=O)OC)C4=N3)C(CC)=C1C (stereo not drawn)", "COLO 205 colon", ">", 100],
  ["CC[C@H](C)[C@@H]1OC(=O)[C@@H](C)[C@@H](CC)NC(=O)[C@H](C)NC(=O)C(C)(C)C(=O)[C@H](C)NC(=O)[C@H](Cc2ccc(OC)cc2)N(C)C(=O)[C@H](C(C)C)N(C)C(=O)CNC(=O)[C@H](CC(C)C)N(C)C(=O)CNC1=O (cyclo(A[X56]G[NMeL]G[NMeV][NMeY](Me)[X32]))", "COLO 205 colon", ">", 33.3],
  ["N#Cc1ccc(Oc2nc3ccc(C(F)(F)F)cc3nc2-c2ccccc2)cc1", "COLO 205 colon", "=", 50.9],
  ["Cc1cc2nc(N3C(=O)/C(=C/c4ccc(Cl)cc4)N=C3c3ccccc3)sc2cc1C", "COLO 205 colon", "=", 43.3],
  ["C(=C\\c1cc(-c2ccc3ccccc3n2)nc2ccc3ccccc3c12)/c1ccc2ccccc2n1", "COLO 205 colon", ">", 100]
]}

src = PubChem BioAssay (NCI)
